target system: Human M4 (Homo sapiens)
Construct: expressed in transfected cells
test details: mAChR M4 cell-based functional assay (calcium flux, potentiation of EC20 acetylcholine response), hM4-Gqi5 CHO-K1 cells
protocol conditions: hM4-Gqi5 CHO-K1 cells, calcium flux, PAM of EC20 acetylcholine; read-out: Human M4 EC50
property: EC50 (nM)

Examples with answers:
Cc1c(N2CCc3ncc(Nc4ccccc4F)cc3C2)nn2cnnc2c1C :: 161
Cc1c(N2CCc3ncc(Nc4cc(Cl)ccc4F)cc3C2)nn2cnnc2c1C :: 562

P = Cc1c(N2CCc3ncc(Nc4c(F)ccc(Cl)c4F)cc3C2)nn2cnnc2c1C
Q = CCn1ccc(-c2cnc3c(c2)CN(c2nn4ccnc4cc2C)CC3)n1
### Prompt Returns: the label, P or Q , whose recorded EC50 is the lower number. When you have decided, please share the label of that item.
### Response P
(P: 443 nM, Q: 921 nM)

a = Cc1cnn(C)c1-c1cnc2c(c1)CN(c1nn3cnnc3c(C)c1C)CC2
b = Cc1c(N2CCc3ncc(NCc4cccc(F)c4)cc3C2)nn2cnnc2c1C
### Prompt Compare the recorded EC50 of a and b ; state which is larger. When you have decided, please share the label of that item.
### Response b

* * *

target system: Human M4 (Homo sapiens, UniProt P08173)
Construct: expressed in transfected cells
test details: mAChR M4 cell-based functional assay (calcium flux, potentiation of EC20 acetylcholine response), hM4-Gqi5 CHO-K1 cells
protocol conditions: CHO-K1; Table 3; Human M4; % ACh maximum at 30 μM; read-out: Emax (% ACh maximum at 30 μM)
property: Emax at 30 µM (%)

Examples with answers:
COc1cnc(Cl)c(-c2cnc3c(c2)CN(c2nn4c(C(F)(F)F)nnc4c(C)c2C)CC3)c1 [Compound 239] :: 57
COc1nnc2c(C)c(C)c(N3CCc4ncc(C(F)(F)F)cc4C3)nn12 [Compound 270] :: 97
COc1cnc(Cl)c(-c2cnc3c(c2)CN(c2nn4cnnc4c(C)c2C)CC3)c1 [Compound 178] :: 85
Cc1cc2nncn2nc1N1CCc2ncc(C(C)(C)O)cc2C1 [Compound 233] :: 97
Cc1ccc(Oc2cnc3c(c2)CN(c2nn4c(C(F)(F)F)nnc4cc2C)CC3)c(F)c1 [Compound 290] :: 69
Cc1cnc2c(c1)CN(c1nn3cc(C(=O)NC4CC4)nc3cc1C)CC2 [Compound 168] :: 54

a = Cc1c(N2CCc3ncc(-c4cnn(C)c4)cc3C2)nn2c(C(F)(F)F)nnc2c1C [Compound 240]
b = Cc1c(N2CCc3ncc(N4CCCn5nccc54)cc3C2)nn2c(Cl)nnc2c1C [Compound 284]
### Prompt Returns: the label, a or b , whose recorded Emax at 30 µM is the lower number. When you have decided, please share the label of that item.
### Response b
(b: 53%, a: 77%)

* * *

target system: Human M4 (Homo sapiens, UniProt P08173)
Construct: expressed in transfected cells
Sequence (P08173 1-479): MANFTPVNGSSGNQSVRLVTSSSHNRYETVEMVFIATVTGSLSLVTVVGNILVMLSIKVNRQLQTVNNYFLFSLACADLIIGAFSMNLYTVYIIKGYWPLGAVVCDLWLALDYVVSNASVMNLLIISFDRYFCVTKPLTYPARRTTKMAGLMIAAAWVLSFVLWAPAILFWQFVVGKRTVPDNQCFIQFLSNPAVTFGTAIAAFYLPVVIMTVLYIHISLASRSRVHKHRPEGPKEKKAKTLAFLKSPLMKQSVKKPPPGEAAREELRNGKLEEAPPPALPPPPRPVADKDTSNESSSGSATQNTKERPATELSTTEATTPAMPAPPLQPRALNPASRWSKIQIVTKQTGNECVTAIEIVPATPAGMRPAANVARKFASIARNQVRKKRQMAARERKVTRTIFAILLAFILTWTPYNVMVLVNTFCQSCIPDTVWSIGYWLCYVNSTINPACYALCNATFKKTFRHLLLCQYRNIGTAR
test details: mAChR M4 cell-based functional assay (calcium flux, potentiation of EC20 acetylcholine response), hM4-Gqi5 CHO-K1 cells
protocol conditions: CHO-K1; Table 4; Human M4; % ACh maximum at 30 μM; read-out: Emax (% ACh maximum at 30 μM)
property: Emax at 30 µM (%)

Cc1cc2nnc(C(F)(F)F)n2nc1N1CCc2ncc(N3CCCn4nccc43)cc2C1 :: 116
Cc1cc2cnc(C)n2nc1N1CCc2ncc(C(F)(F)F)cc2C1 :: 63
Cc1cc2nnc(C(F)(F)F)n2nc1N1CCc2ncc(N3CCOC(c4ccccn4)C3)cc2C1 (centres unmarked) :: 62
Cc1c(N2CCc3ncc(N4CCOC[C@H]4C)cc3C2)nn2c(C(F)(F)F)nnc2c1C :: 98
c1cc2n(n1)CCCN2c1cnc2c(c1)CN(c1nn3cnnc3c3c1CCCC3)CC2 :: 73
COCc1c(N2CCc3ncc(C(F)(F)F)cc3C2)nn2cnnc2c1C :: 106
CCOC(=O)c1c(C)nc2cc(C)c(N3CCc4ncc(C(F)(F)F)cc4C3)nn12 :: 61
FC(F)(F)c1cnc2c(c1)CN(c1nn3c(C(F)(F)F)nnc3c3ccccc13)CC2 :: 84
